# maps each entry to its Relative activity (%)
TESTED TARGET: T1, recombinant cynomolgus monkey CD112R antigen (cynomolgus monkey, UniProt A0A2K5WVV8 1-322)
T1 construct: bought
T1 sequence: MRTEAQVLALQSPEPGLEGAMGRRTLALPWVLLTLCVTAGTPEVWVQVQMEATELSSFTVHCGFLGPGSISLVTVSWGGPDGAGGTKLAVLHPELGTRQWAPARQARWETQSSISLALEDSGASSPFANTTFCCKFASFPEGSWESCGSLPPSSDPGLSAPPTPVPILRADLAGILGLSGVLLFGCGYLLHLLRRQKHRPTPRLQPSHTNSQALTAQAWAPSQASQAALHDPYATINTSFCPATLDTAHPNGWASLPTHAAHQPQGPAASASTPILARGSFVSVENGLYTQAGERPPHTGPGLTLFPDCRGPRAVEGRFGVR
PROTOCOL: ELISA, coated cynomolgus monkey CD112R; EC50 Ref/EC50 antibody
Use % as the unit, but write only the number.

BINDER	Relative activity (%)
Chi-61 (antibody, V domains shown, chimeric) VH: DVKLVESGGGLVKLGGSLKLSCAASGFTFSSYHMSWVRQTPEKRLELVAAISRDGDSTYYPDTVKGRFTISRDDAENTLYLQMSSLKSEDTALYYCSRHEDYFGFAMDSWGQGTSVTVSS VL: SIVMTQTPKFLLVSAGDRVTITCKASQSVSNDVAWYQEKPGQSPKLLMYYVSHRFTGVPDRFTGSGYGTDFTFTINTVQAEDLAVYFCHQAYRSPWTFGGGTKLEIK	83.8

Moving on to the next binder.
Q) Which Relative activity (%) value belongs to Chi-47 (antibody, V domains shown, chimeric) VH: DVKLVESGGGLVKLGGSLKLSCAASGFTFSSYHMSWVRQTPEKRLELVAAINSNVISTYYLDTVKGRFTISRDNAKNTLYLQMSSLKSEDTALYYCARHEDYYGFAMDYWGQGTSVTVSS VL: SIVMTQTPKFLLVSAGDRVTITCKASQSVTNDVAWYQQKPGQSPKLLMYYVSNHYTGVPDRFIGSGYGTDFTFTISTVQAEDLAVYFCQQAYRSPWTFGGGTKLEIK ?
A) 113

FYI, the data here is from patent US20240309087A1.
